molecular target: Recombinant JAK3 (Homo sapiens); construct: purchased Carna Biosciences; test: JAK biochemical assay (LANCE Ultra TR-FRET), JAK3; conditions: recombinant JAK3, TR-FRET; read-out: Biochemical Assay (μM) JAK3
Sequence (P52333 whole entry): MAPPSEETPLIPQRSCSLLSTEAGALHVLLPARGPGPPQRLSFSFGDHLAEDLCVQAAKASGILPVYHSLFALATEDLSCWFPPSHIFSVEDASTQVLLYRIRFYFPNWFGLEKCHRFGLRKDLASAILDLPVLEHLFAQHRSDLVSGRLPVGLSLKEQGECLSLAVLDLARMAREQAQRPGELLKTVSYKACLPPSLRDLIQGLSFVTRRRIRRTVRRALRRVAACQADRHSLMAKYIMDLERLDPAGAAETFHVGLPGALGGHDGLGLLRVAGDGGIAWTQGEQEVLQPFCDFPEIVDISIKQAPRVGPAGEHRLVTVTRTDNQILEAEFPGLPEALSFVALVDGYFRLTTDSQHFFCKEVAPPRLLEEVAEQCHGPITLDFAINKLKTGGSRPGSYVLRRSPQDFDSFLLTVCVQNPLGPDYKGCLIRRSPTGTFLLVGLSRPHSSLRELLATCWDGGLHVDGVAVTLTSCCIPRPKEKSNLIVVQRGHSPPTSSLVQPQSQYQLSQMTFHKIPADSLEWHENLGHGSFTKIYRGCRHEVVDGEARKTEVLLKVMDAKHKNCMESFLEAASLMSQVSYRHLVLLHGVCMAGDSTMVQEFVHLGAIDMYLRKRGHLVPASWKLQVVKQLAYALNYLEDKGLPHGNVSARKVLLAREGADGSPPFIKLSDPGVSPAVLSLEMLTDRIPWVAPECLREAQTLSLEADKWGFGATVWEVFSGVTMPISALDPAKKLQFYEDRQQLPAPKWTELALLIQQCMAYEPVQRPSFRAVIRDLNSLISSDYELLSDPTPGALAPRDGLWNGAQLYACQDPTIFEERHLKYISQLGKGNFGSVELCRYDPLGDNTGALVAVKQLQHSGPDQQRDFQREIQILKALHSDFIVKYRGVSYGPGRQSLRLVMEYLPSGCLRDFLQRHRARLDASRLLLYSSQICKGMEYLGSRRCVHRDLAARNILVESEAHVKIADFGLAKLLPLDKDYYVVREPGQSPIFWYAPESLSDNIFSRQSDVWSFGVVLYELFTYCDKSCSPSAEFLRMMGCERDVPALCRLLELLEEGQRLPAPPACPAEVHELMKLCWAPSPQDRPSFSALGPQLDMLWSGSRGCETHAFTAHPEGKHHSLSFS

{"compound": "COCCC(C#N)NC(=O)n1cc(-c2ccnc3[nH]cnc23)cn1 (stereo not drawn) [Example 1071]", "target or test system": "Recombinant JAK3 (Homo sapiens)", "IC50": "> 0.5 µM"}
{"compound": "FC(F)(F)C(c1ccc(-n2cc(-c3ccnc4[nH]cnc34)cn2)nc1)C1COC1 (stereo not drawn) [Example 1136]", "target or test system": "Recombinant JAK3 (Homo sapiens)", "IC50": "< 0.1 µM"}
{"compound": "CCn1c(=O)[nH]c2nccc(-c3cnn(C(=O)NCC(F)(F)F)c3)c21 [Example 1042]", "target or test system": "Recombinant JAK3 (Homo sapiens)", "IC50": "> 10 µM"}
{"compound": "CS(=O)(=O)N1CCC(NC(=O)N2CCN(c3ccnc4[nH]c(=O)[nH]c34)CC2)CC1 [Example 1016]", "target or test system": "Recombinant JAK3 (Homo sapiens)", "IC50": "> 10 µM"}
{"compound": "N#CCc1ccnc(-n2cc(-c3ccnc4[nH]cnc34)cn2)c1 [Example 1118]", "target or test system": "Recombinant JAK3 (Homo sapiens)", "IC50": "> 0.5 µM"}
{"compound": "OC(c1ccc(-n2cc(-c3ccnc4[nH]cnc34)cn2)nc1)C1CC1 (stereo not drawn) [Example 1159]", "target or test system": "Recombinant JAK3 (Homo sapiens)", "IC50": "< 0.1 µM"}
